Biological target: Short transient receptor potential channel 4 (Mus musculus)
Sequence (Q9QUQ5 whole entry): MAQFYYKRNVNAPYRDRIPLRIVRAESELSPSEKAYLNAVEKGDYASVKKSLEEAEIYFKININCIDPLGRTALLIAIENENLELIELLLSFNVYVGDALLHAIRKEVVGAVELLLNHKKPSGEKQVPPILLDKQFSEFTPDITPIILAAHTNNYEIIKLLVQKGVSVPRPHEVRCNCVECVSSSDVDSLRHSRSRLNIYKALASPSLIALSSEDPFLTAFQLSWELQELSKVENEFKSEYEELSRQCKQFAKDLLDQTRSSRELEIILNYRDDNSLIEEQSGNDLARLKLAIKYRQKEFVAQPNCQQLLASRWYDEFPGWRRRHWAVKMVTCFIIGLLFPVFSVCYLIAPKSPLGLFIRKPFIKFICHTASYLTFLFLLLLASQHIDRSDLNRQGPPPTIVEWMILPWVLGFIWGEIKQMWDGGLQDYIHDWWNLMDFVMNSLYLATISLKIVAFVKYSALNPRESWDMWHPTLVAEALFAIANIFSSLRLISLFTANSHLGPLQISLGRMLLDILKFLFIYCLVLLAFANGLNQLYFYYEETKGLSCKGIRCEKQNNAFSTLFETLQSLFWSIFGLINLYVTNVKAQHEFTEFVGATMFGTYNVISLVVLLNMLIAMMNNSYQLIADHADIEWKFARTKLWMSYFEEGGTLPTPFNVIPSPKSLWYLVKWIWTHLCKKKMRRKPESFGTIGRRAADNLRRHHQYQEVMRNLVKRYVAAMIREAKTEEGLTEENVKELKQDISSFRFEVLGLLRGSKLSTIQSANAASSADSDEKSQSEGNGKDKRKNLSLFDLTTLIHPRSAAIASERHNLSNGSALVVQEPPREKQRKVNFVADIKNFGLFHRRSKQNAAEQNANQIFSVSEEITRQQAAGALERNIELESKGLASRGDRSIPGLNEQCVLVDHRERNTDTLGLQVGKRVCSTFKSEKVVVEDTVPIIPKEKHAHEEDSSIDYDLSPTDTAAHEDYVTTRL
Experiment: block of DAMGO-driven TRPC4 calcium entry – cell-based, HEK293 TRPC4/mu-opioid, Fluo-4 calcium, dose response (AID 434942);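 further: potency of inhibitors blocking the TRPC4 calcium response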
Format: functional
The source made the active and inactive calls. How the calls were made is not given here.
PARAMETER: EC50

Examples with their reported EC50 follow.
- MOLECULE: "CC1CCCN(CCOCCOc2ccccc2-c2ccccc2)C1 (centres undefined)"
  MEASUREMENT_TARGET: "Short transient receptor potential channel 4 (Mus musculus)"
  READOUT_VALUE: "335 nM (active)"
- MOLECULE: "Clc1ccc(C[n+]2cc(-c3ccccc3)n3c2CCC3)cc1Cl"
  MEASUREMENT_TARGET: "Short transient receptor potential channel 4 (Mus musculus)"
  READOUT_VALUE: "3760 nM (active)"
- MOLECULE: "COc1ccccc1CC(Cc1nc2ccccc2[nH]1)c1nc2ccccc2[nH]1 (centres undefined)"
  MEASUREMENT_TARGET: "Short transient receptor potential channel 4 (Mus musculus)"
  READOUT_VALUE: "3350 nM (active)"

Query: I'm curious: which EC50 was measured for COc1ccccc1NS(=O)(=O)c1cccc(C(=O)NC2CCN(Cc3ccccc3)CC2)c1 tested on Short transient receptor potential channel 4 (Mus musculus)?
Reply: 376 nM (active)

Reference source: ChEMBL document CHEMBL1201862
